// endpoint pIC50 / system Pim-3 (Homo sapiens (Human), UniProt Q86V86)
pIC50: −log10 of the molar value.

molecule: Nc1sc(-c2c(F)cccc2F)nc1C(=O)Nc1cnc2c(c1N1CC[C@@H](O)[C@H](N)C1)CCC2 (single isomer, unassigned)
pIC50: ≥ 7.00

Measured pIC50 for this entry COc1ccc(F)c(-c2nc(C(=O)Nc3cnc4c(c3N3C[C@@H](N)[C@H](O)[C@@H](C)C3)CCO4)ccc2F)c1F on Pim-3 (Homo sapiens (Human), UniProt Q86V86): ≥ 7.00

Measured pIC50 for this entry C[C@H]1CN(c2c(NC(=O)c3ccc(F)c(-c4c(F)cccc4F)n3)cnc3c2CCC3O)C[C@@H](N)[C@@H]1O (single isomer, unassigned) [37 (Diastereoisomer 1)] on Pim-3 (Homo sapiens (Human), UniProt Q86V86): ≥ 7.00

###

- assayed.system: Pim-2 (Homo sapiens (Human), UniProt Q9P1W9)
- Sequence (Q9P1W9 whole entry): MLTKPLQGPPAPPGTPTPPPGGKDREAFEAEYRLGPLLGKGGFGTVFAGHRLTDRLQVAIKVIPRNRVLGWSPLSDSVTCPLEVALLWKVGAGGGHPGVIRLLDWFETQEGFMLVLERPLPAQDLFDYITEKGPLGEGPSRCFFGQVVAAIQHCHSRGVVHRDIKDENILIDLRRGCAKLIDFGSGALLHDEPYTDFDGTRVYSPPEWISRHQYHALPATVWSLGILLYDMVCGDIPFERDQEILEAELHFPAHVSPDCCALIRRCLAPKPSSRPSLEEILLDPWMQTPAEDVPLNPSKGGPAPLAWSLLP
- protocol.summary: Pim-2 kinase assay
- Type: biochemical
- assay.setup: 1 mM ATP; read-out: Pim2 IC50
pIC50: −log10 of the molar value.
quantity.measured: pIC50

compound: C[C@@H]1C[C@H](N)CN(c2c(NC(=O)c3ccc(F)c(-c4c(F)cc([S+](C)[O-])cc4F)n3)cnc3c2CCC3O)C1 (single isomer, unassigned) [60 (Diastereoisomer 2)]
assayed.system: Pim-2 (Homo sapiens (Human), UniProt Q9P1W9)
quantity.measured: pIC50
reported.measurement: 6.00 to 7.00
--
compound: N[C@H]1CCCN(c2c(NC(=O)c3csc(-c4c(F)cccc4F)n3)cnc3ccsc23)C1 [Example 6]
assayed.system: Pim-2 (Homo sapiens (Human), UniProt Q9P1W9)
quantity.measured: pIC50
reported.measurement: < 5.70
--
compound: Nc1sc(-c2c(F)cccc2F)nc1C(=O)Nc1cnc2[nH]ccc2c1N1CCC[C@H](N)C1 [Example 7]
assayed.system: Pim-2 (Homo sapiens (Human), UniProt Q9P1W9)
quantity.measured: pIC50
reported.measurement: ≥ 7.00

Reported pIC50 ( COc1ccc(F)c(-c2nc(C(=O)Nc3cnc4c(c3N3C[C@@H](N)[C@H](O)[C@@H](C)C3)CCO4)ccc2F)c1F [Example 74] ) = ≥ 7.00

Reported pIC50 ( Nc1sc(-c2c(F)cccc2F)nc1C(=O)Nc1cnc2c(c1N1CCC[C@H](N)C1)CCC2O (single isomer, unassigned) [15 (Diastereoisomer 2)] ) = ≥ 7.00

###

- assayed.system: UniProt:Q9P1W9
- protocol.summary: Pim-2 kinase assay
- Format: biochemical
- assay.setup: 1 mM ATP; read-out: Pim2 IC50
quantity.measured: IC50

Field: example entries. Status: answers known.
molecule: Nc1sc(-c2c(F)cccc2F)nc1C(=O)Nc1cnc2c(c1N1CCC[C@H](N)C1)CCO2 [Example 9]
IC50: ≤ 100 nM

molecule: CC(C)(O)c1cc(F)c(-c2nc(C(=O)Nc3cnc4c(c3N3C[C@@H](N)C[C@@H](C(F)(F)F)C3)CCC4O)ccc2F)c(F)c1 (single isomer, unassigned) [72 (Diastereoisomer 2)]
IC50: ≤ 100 nM

molecule: COc1ccc(F)c(-c2nc(C(=O)Nc3cnc4c(c3N3CCC[C@H](N)C3)CCC4O)ccc2F)c1F (single isomer, unassigned) [55 (Diastereoisomer 1)]
IC50: 100 to 1000 nM

molecule: Nc1sc(-c2c(F)cccc2F)nc1C(=O)Nc1cnc2c(c1N1C[C@@H](N)C[C@@H](C(F)(F)F)C1)CCC2O (single isomer, unassigned) [44 (Diastereoisomer 2)]
IC50: ≤ 100 nM

Attention now turns to another entry.
Reported IC50 ( C[C@H]1CN(c2c(NC(=O)c3ccc(F)c(-c4c(F)cccc4F)n3)cnc3c2CCC3O)C[C@@H](N)C1(C)O (single isomer, unassigned) [63 (Diastereoisomer 4)] ) = ≤ 100 nM

###

# IC50 annotations
- assayed.system: Pim-2 (Homo sapiens (Human))
- protocol.summary: Pim-2 kinase assay
- Type: biochemical
- assay.setup: 1 mM ATP; read-out: Pim2 IC50

Field: example entries. Status: answers known.
compound: N[C@H]1CCCN(c2c(NC(=O)c3ccc(F)c(-c4c(F)cccc4F)n3)cnc3c2CCC3=O)C1
IC50: 0.1 to 1 µM

compound: N[C@H]1CCCN(c2c(NC(=O)c3csc(-c4c(F)cccc4F)n3)cnc3sccc23)C1
IC50: > 2 µM

compound: Nc1sc(-c2c(F)cccc2F)nc1C(=O)Nc1cnc2c(c1N1CCC[C@H](N)C1)CCC2=O
IC50: ≤ 0.1 µM

Reported IC50 ( COCc1cc(F)c(-c2nc(C(=O)Nc3cnc4c(c3N3C[C@H](C)C[C@H](N)C3)CCC4O)ccc2F)c(F)c1 (single isomer, unassigned) [64 (Diastereoisomer 2)] ) = ≤ 0.1 µM

Reported IC50 ( C[C@@H]1C[C@H](N)CN(c2c(NC(=O)c3ccc(F)c(-c4c(F)cc(C(C)(C)O)cc4F)n3)cnc3c2CCC3O)C1 (single isomer, unassigned) [67 (Diastereoisomer 1)] ) = ≤ 0.1 µM

Reported IC50 ( Nc1sc(-c2c(F)cccc2F)nc1C(=O)Nc1cnc2c(c1N1CC[C@@H](O)[C@@H](N)C1)CCC2 (single isomer, unassigned) ) = > 2 µM

Reported IC50 ( C[C@H]1CN(c2c(NC(=O)c3ccc(F)c(-c4c(F)cccc4F)n3)cnc3c2CCC3)C[C@@H](N)[C@@H]1O ) = ≤ 0.1 µM

Reported IC50 ( C[C@H]1CN(c2c(NC(=O)c3ccc(F)c(-c4c(F)cccc4F)n3)cnc3c2CCC3O)C[C@@H](N)C1(C)O (single isomer, unassigned) [63 (Diastereoisomer 3)] ) = ≤ 0.1 µM

Reported IC50 ( Nc1sc(-c2c(F)cccc2F)nc1C(=O)Nc1cnc2ccsc2c1N1CC[C@@H](O)[C@H](N)C1 (single isomer, unassigned) ) = 0.1 to 1 µM

###

# pIC50 annotations
- assayed.system: Pim-2 (Homo sapiens (Human), UniProt Q9P1W9)
- protocol.summary: Pim-2 kinase assay
- Assay type: biochemical
- assay.setup: 1 mM ATP; read-out: Pim2 IC50
pIC50: −log10 of the molar value.

Field: example entries. Status: answers known.
compound: C[C@@H]1C[C@H](N)CN(c2c(NC(=O)c3nc(-c4c(F)cccc4F)c(F)cc3N)cnc3c2CCC3O)C1 (single isomer, unassigned) [46 (Diastereoisomer 1)]
pIC50: ≥ 7.00

compound: Nc1cc(F)c(-c2c(F)cccc2F)nc1C(=O)Nc1cnc2c(c1N1CCC[C@H](N)C1)CCC2O (single isomer, unassigned) [23 (Diastereoisomer 2)]
pIC50: ≥ 7.00

compound: Nc1sc(-c2c(F)cccc2F)nc1C(=O)Nc1cnc2sccc2c1N1CCC[C@H](N)C1 [Example 3]
pIC50: ≥ 7.00

compound: N[C@@H]1CN(c2c(NC(=O)c3ccc(F)c(-c4c(F)cccc4F)n3)cnc3c2CCC3O)C[C@H](C2CC2)[C@H]1O (single isomer, unassigned) [68 (Diastereoisomer 1)]
pIC50: ≥ 7.00

compound: COCc1cc(F)c(-c2nc(C(=O)Nc3cnc4c(c3N3C[C@@H](N)[C@H](O)[C@@H](C)C3)CCC4O)ccc2F)c(F)c1 (single isomer, unassigned) [66 (Diastereoisomer 2)]
pIC50: ≥ 7.00

Reported pIC50 ( C[C@H]1CN(c2c(NC(=O)c3ccc(F)c(-c4c(F)cc(OC5CCCOC5)cc4F)n3)cnc3c2CCO3)C[C@@H](N)[C@@H]1O (some centres unmarked) [Example 69] ) = ≥ 7.00

Reported pIC50 ( Nc1cc(F)c(-c2c(F)cccc2F)nc1C(=O)Nc1cnc2c(c1N1CCC[C@H](N)C1)CCC2O (single isomer, unassigned) [23 (Diastereoisomer 1)] ) = ≥ 7.00

Reported pIC50 ( CSc1cc(F)c(-c2nc(C(=O)Nc3cnc4c(c3N3CCC[C@H](N)C3)CCC4O)ccc2F)c(F)c1 (single isomer, unassigned) [58 (Diastereoisomer 2)] ) = 6.00 to 7.00

Reported pIC50 ( COc1ccc(F)c(-c2nc(C(=O)Nc3cnc4c(c3N3C[C@H](C)C[C@H](N)C3)CCC4O)ccc2F)c1F (single isomer, unassigned) [56 (Diastereoisomer 2)] ) = ≥ 7.00

Reported pIC50 ( N[C@H]1CCCN(c2c(NC(=O)c3ccc(F)c(-c4c(F)cccc4F)n3)cnc3c2CCC3O)C1 (single isomer, unassigned) [22 (Diastereoisomer 1)] ) = 6.00 to 7.00

Reported pIC50 ( N[C@H]1CCCN(c2c(NC(=O)c3csc(-c4c(F)cccc4F)n3)cnc3c2CCO3)C1 [Example 10] ) = 6.00 to 7.00

###

- assayed.system: Pim-2 (Homo sapiens (Human), UniProt Q9P1W9)
- protocol.summary: Pim-2 kinase assay
- Type: biochemical
- assay.setup: 1 mM ATP; read-out: Pim2 IC50
pIC50: −log10 of the molar value.
# pIC50 annotations

molecule: COc1ccc(F)c(-c2nc(C(=O)Nc3cnc4c(c3N3C[C@H](C)C[C@H](N)C3)CCC4O)ccc2F)c1F (single isomer, unassigned) [56 (Diastereoisomer 1)]
pIC50: ≥ 7.00
--
molecule: N[C@H]1C[C@@H](C(F)(F)F)CN(c2c(NC(=O)c3ccc(F)c(-c4c(F)cccc4F)n3)cnc3c2CCO3)C1
pIC50: ≥ 7.00
--
molecule: N#CC1CCc2c1ncc(NC(=O)c1nc(-c3c(F)cccc3F)sc1N)c2N1CCC[C@H](N)C1 (single isomer, unassigned) [18 (Diastereoisomer 1)]
pIC50: 6.00 to 7.00
--
molecule: C[S+]([O-])c1cc(F)c(-c2nc(C(=O)Nc3cnc4c(c3N3CCC[C@H](N)C3)CCC4O)ccc2F)c(F)c1 (single isomer, unassigned) [59 (Diastereoisomer 2)]
pIC50: 6.00 to 7.00
--
molecule: N[C@H]1CCCN(c2c(NC(=O)c3ccc(F)c(-c4c(F)cccc4F)n3)cnc3c2CCO3)C1
pIC50: 6.00 to 7.00
--
molecule: Nc1sc(-c2c(F)cccc2F)nc1C(=O)Nc1cnc2c(c1N1CC[C@@H](O)[C@H](N)C1)CCC2 (single isomer, unassigned)
pIC50: ≥ 7.00

Measured pIC50 for this entry C[C@@H]1C[C@H](N)CN(c2c(NC(=O)c3ccc(F)c(-c4c(F)cc([S+](C)[O-])cc4F)n3)cnc3c2CCC3O)C1 (single isomer, unassigned) [60 (Diastereoisomer 1)] on Pim-2 (Homo sapiens (Human), UniProt Q9P1W9): 6.00 to 7.00

Measured pIC50 for this entry Nc1sc(-c2c(F)cccc2F)nc1C(=O)Nc1cnc2c(c1N1CCC[C@H](N)C1)CCC2O (single isomer, unassigned) [15 (Diastereoisomer 1)] on Pim-2 (Homo sapiens (Human), UniProt Q9P1W9): ≥ 7.00

Hello, the source for this data is patent US10265307B2, in case you need it.
